B1: Hairpin Ribozyme (parent)
chain: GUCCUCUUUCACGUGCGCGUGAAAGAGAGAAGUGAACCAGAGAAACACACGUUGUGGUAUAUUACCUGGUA

Variants of: B1
Assay: self-cleavage, relative activity (ratio to wild type); higher = more cleavage; co-transcriptional
Would you please tag the item TRUE when its self-cleavage is 0.2 or above, and FALSE when it is below?

# count of solved cases: 3
Reported self-cleavage at or above 0.2? "GUCCUCUUUCACGUGCGCGAGAAAGAGAGAAGUGAACCAGAGAAACACACGUUGUGGUAUAUUACCCGGUA"
TRUE

Reported self-cleavage at or above 0.2? "GUCCUCUUUCACGUGCGCGUGAAAGAGAGAAGUGAACCAGAAAAACACACGUUGUGGUAUAUUCCCUGGUA"
FALSE

Reported self-cleavage at or above 0.2? "GUCCUCUUUCACGAGCGCUUGAAAGAGAGAAGUGAACCAGAGAAACACACGUUGUGGUAUAUUACCUGGUA"
TRUE

Next:
Reported self-cleavage at or above 0.2? "GUCCUCUUUCACGUGCGCGUGAAAGAGAGCAGUGAACCAGAAAAACACACGUUGUGGUAUAUUACCUGGUA"
FALSE

Reported self-cleavage at or above 0.2? "GUCCUCUUUCACGUGCGCGUGAAAGAGAAAAGUGAACCAGAGAAUCACACGUUGUGGUAUAUUACCUGGUA"
FALSE

Reported self-cleavage at or above 0.2? "GUCCUCUUUCACGUGCGCGUGAAGGAGAGAAGUGAACCAGAGAAACACACGUUGUGGUAUAUCACCUGGUA"
FALSE

Reported self-cleavage at or above 0.2? "GUCCUCUUCCACGUGCGCGUGAAAGAGAGAAGUGAACCAGAGCAACACACGUUGUGGUAUAUUACCUGGUA"
FALSE

Reported self-cleavage at or above 0.2? "GUCCUCUUUCACGUGCGCGUGAAAGAGAGAUGUGAACCAGAGAAACACACGUUGUGGUAUAUCACCUGGUA"
TRUE

Reported self-cleavage at or above 0.2? "GUCCUCUUUCACGUGCGCGUGAAAGAGAGAAGUGAACCAGAGAAACACACGUUGUGUUAUAUUACCGGGUA"
FALSE

Reported self-cleavage at or above 0.2? "GUCCUCUUUCACGUGCGCGUGAAAGAGAGAAGUGUACCAGAGAAACACACGUUGUGGUGUAUUACCUGGUA"
FALSE
